# System: 301 cancer cell lines from different tumor types (OncoPanel; HD Biosciences)
# assay_info: 2D cell viability inhibition assay (CellTiter-Glo) in cancer cell line panel
# Format: cell-based
# condition_info: Homo sapiens, 786-0, 7860 cell line
quantity_measured: pEC50
Please report pEC50 as the negative decimal logarithm of the molar concentration, giving only the number.

What value of measured pEC50 is listed for CC(C)c1ccc(N(C)c2ccc3c(c2)OCC[C@H]3CNc2cnccc2C(=O)O)cc1 [Compound 1] ? 7.93

* * *

# Tested on: 301 cancer cell lines from different tumor types (OncoPanel; HD Biosciences)
# assay_info: 2D cell viability inhibition assay (CellTiter-Glo) in cancer cell line panel
# Assay type: cell-based
# condition_info: Homo sapiens, NCI-H2347, NCIH2347 cell line
quantity_measured: pIC50
Please report pIC50 as the negative decimal logarithm of the molar concentration, giving only the number.

What value of measured pIC50 is listed for CC(C)c1ccc(N(C)c2ccc3c(c2)OCC[C@H]3CNc2cnccc2C(=O)O)cc1 ? 7.88

* * *

# System: 301 cancer cell lines from different tumor types (OncoPanel; HD Biosciences)
# assay_info: 2D cell viability inhibition assay (CellTiter-Glo) in cancer cell line panel
# Assay type: cell-based
# condition_info: Homo sapiens, HCT-15, HCT15 cell line
quantity_measured: IC50 (nM)
API: value field is a number in nM; no unit string.

What value of measured IC50 is listed for CC(C)c1ccc(N(C)c2ccc3c(c2)OCC[C@H]3CNc2cnccc2C(=O)O)cc1 ? 1.79

* * *

# System: 301 cancer cell lines from different tumor types (OncoPanel; HD Biosciences)
# assay_info: 2D cell viability inhibition assay (CellTiter-Glo) in cancer cell line panel
# Type: cell-based
# condition_info: Homo sapiens, MDA-MB-453, MDAMB453 cell line
quantity_measured: pEC50
Please report pEC50 as the negative decimal logarithm of the molar concentration, giving only the number.

What value of measured pEC50 is listed for CC(C)c1ccc(N(C)c2ccc3c(c2)OCC[C@H]3CNc2cnccc2C(=O)O)cc1 ? 8.10

* * *

# Tested on: 301 cancer cell lines from different tumor types (OncoPanel; HD Biosciences)
# assay_info: 2D cell viability inhibition assay (CellTiter-Glo) in cancer cell line panel
# Assay type: cell-based
# condition_info: Homo sapiens, KYSE-30, KYSE30 cell line
quantity_measured: pIC50
Please report pIC50 as the negative decimal logarithm of the molar concentration, giving only the number.

What value of measured pIC50 is listed for CC(C)c1ccc(N(C)c2ccc3c(c2)OCC[C@H]3CNc2cnccc2C(=O)O)cc1 ? 8.62

* * *

# Tested on: 301 cancer cell lines from different tumor types (OncoPanel; HD Biosciences)
# assay_info: 2D cell viability inhibition assay (CellTiter-Glo) in cancer cell line panel
# Assay type: cell-based
# condition_info: ECGI10 cell line
# Experimental: In a larger screening study, compound 1 was evaluated across a broad cancer cell line panel (OncoPanel; HD Biosciences) composed of 301 cancer cell lines from different tumor types. 2D cell viability inhibition assays were performed in multiwell plates seeded with cells from the panel. […] Cultures were incubated for 168 hours after which the number of viable cells in each test well was assessed using the CellTiter-Glo® Luminescent Cell Viability Assay. […]
quantity_measured: EC50

Which EC50 is reported with 301 cancer cell lines from different tumor types (OncoPanel; HD Biosciences) for this entry: CC(C)c1ccc(N(C)c2ccc3c(c2)OCC[C@H]3CNc2cnccc2C(=O)O)cc1 ? ≥ 10 µM

* * *

# Test system: 301 cancer cell lines from different tumor types (OncoPanel; HD Biosciences)
# assay_info: 2D cell viability inhibition assay (CellTiter-Glo) in cancer cell line panel
# Format: cell-based
# condition_info: SNUC2A cell line
quantity_measured: pIC50
Please report pIC50 as the negative decimal logarithm of the molar concentration, giving only the number.

What value of measured pIC50 is listed for CC(C)c1ccc(N(C)c2ccc3c(c2)OCC[C@H]3CNc2cnccc2C(=O)O)cc1 [Compound 1] ? 7.28

* * *

# System: 301 cancer cell lines from different tumor types (OncoPanel; HD Biosciences)
# assay_info: 2D cell viability inhibition assay (CellTiter-Glo) in cancer cell line panel
# Format: cell-based
# condition_info: Homo sapiens, DMS-79, DMS79 cell line
quantity_measured: pIC50
Please report pIC50 as the negative decimal logarithm of the molar concentration, giving only the number.

What value of measured pIC50 is listed for CC(C)c1ccc(N(C)c2ccc3c(c2)OCC[C@H]3CNc2cnccc2C(=O)O)cc1 ? 8.46

* * *

# Tested on: 301 cancer cell lines from different tumor types (OncoPanel; HD Biosciences)
# assay_info: 2D cell viability inhibition assay (CellTiter-Glo) in cancer cell line panel
# Assay type: cell-based
# condition_info: HEP3B217 cell line
quantity_measured: IC50

What value of measured IC50 is listed for CC(C)c1ccc(N(C)c2ccc3c(c2)OCC[C@H]3CNc2cnccc2C(=O)O)cc1 [Compound 1] ? 129 nM

* * *

# Test system: 301 cancer cell lines from different tumor types (OncoPanel; HD Biosciences)
# assay_info: 2D cell viability inhibition assay (CellTiter-Glo) in cancer cell line panel
# Type: cell-based
# condition_info: Homo sapiens, TE-9, TE9 cell line
quantity_measured: EC50
# number then unit; no other words

What value of measured EC50 is listed for CC(C)c1ccc(N(C)c2ccc3c(c2)OCC[C@H]3CNc2cnccc2C(=O)O)cc1 ? 3.75 nM

* * *

# Tested on: 301 cancer cell lines from different tumor types (OncoPanel; HD Biosciences)
# assay_info: 2D cell viability inhibition assay (CellTiter-Glo) in cancer cell line panel
# Type: cell-based
# condition_info: Homo sapiens, Daudi, DAUDI cell line
quantity_measured: IC50
# number then unit; no other words

What value of measured IC50 is listed for CC(C)c1ccc(N(C)c2ccc3c(c2)OCC[C@H]3CNc2cnccc2C(=O)O)cc1 ? 0.0149 µM

* * *

# Test system: 301 cancer cell lines from different tumor types (OncoPanel; HD Biosciences)
# assay_info: 2D cell viability inhibition assay (CellTiter-Glo) in cancer cell line panel
# Assay type: cell-based
# condition_info: LUDLU-1, LUDLU1 cell line
# Method: In a larger screening study, compound 1 was evaluated across a broad cancer cell line panel (OncoPanel; HD Biosciences) composed of 301 cancer cell lines from different tumor types. 2D cell viability inhibition assays were performed in multiwell plates seeded with cells from the panel. […] Cultures were incubated for 168 hours after which the number of viable cells in each test well was assessed using the CellTiter-Glo® Luminescent Cell Viability Assay. […]
quantity_measured: EC50 (µM)
API: value field is a number in µM; no unit string.

What value of measured EC50 is listed for CC(C)c1ccc(N(C)c2ccc3c(c2)OCC[C@H]3CNc2cnccc2C(=O)O)cc1 ? 0.0126

* * *

# System: 301 cancer cell lines from different tumor types (OncoPanel; HD Biosciences)
# assay_info: 2D cell viability inhibition assay (CellTiter-Glo) in cancer cell line panel
# Type: cell-based
# condition_info: Homo sapiens, G-361, 168 h, G361; skin, NS; 168 hours
quantity_measured: IC50

Which IC50 is reported with 301 cancer cell lines from different tumor types (OncoPanel; HD Biosciences) for this entry: CC(C)c1ccc(N(C)c2ccc3c(c2)OCC[C@H]3CNc2cnccc2C(=O)O)cc1 ? > 10 µM

* * *

# System: 301 cancer cell lines from different tumor types (OncoPanel; HD Biosciences)
# assay_info: 2D cell viability inhibition assay (CellTiter-Glo) in cancer cell line panel
# Format: cell-based
# condition_info: Homo sapiens, HEL, HEL cell line
quantity_measured: IC50 (µM)
API: value field is a number in µM; no unit string.

What value of measured IC50 is listed for CC(C)c1ccc(N(C)c2ccc3c(c2)OCC[C@H]3CNc2cnccc2C(=O)O)cc1 ? 0.0117

* * *

# Tested on: 301 cancer cell lines from different tumor types (OncoPanel; HD Biosciences)
# assay_info: 2D cell viability inhibition assay (CellTiter-Glo) in cancer cell line panel
# Format: cell-based
# condition_info: Homo sapiens, NCI-H524, NCIH524 cell line
quantity_measured: IC50 (nM)
API: value field is a number in nM; no unit string.

What value of measured IC50 is listed for CC(C)c1ccc(N(C)c2ccc3c(c2)OCC[C@H]3CNc2cnccc2C(=O)O)cc1 ? 6.85

* * *

# Tested on: 301 cancer cell lines from different tumor types (OncoPanel; HD Biosciences)
# assay_info: 2D cell viability inhibition assay (CellTiter-Glo) in cancer cell line panel
# Type: cell-based
# condition_info: Homo sapiens, THP-1, THP1 cell line
quantity_measured: EC50 (nM)
API: value field is a number in nM; no unit string.

What value of measured EC50 is listed for CC(C)c1ccc(N(C)c2ccc3c(c2)OCC[C@H]3CNc2cnccc2C(=O)O)cc1 ? 4.92

* * *

# Tested on: 301 cancer cell lines from different tumor types (OncoPanel; HD Biosciences)
# assay_info: 2D cell viability inhibition assay (CellTiter-Glo) in cancer cell line panel
# Assay type: cell-based
# condition_info: Homo sapiens, NCI-H1703, NCIH1703 cell line
quantity_measured: IC50 (nM)
API: value field is a number in nM; no unit string.

What value of measured IC50 is listed for CC(C)c1ccc(N(C)c2ccc3c(c2)OCC[C@H]3CNc2cnccc2C(=O)O)cc1 [Compound 1] ? 8.05
